The entries below are paired with their reported increase of Ras binding affinity by substitution.
Target: Ras(G12V)-Raf RBD interaction (Homo sapiens, UniProt P01116, G12V)
Construct: The G12V mutant K-Ras (amino acids 1-185) was recombinantly fused to glutathione 5-transferase (GST) at its N-terminus; GST (N, cleaved yes); made in house; host or cells: Escherichia coli BL21
Sequence (P01116 1-185 isoform P01116-2 G12V): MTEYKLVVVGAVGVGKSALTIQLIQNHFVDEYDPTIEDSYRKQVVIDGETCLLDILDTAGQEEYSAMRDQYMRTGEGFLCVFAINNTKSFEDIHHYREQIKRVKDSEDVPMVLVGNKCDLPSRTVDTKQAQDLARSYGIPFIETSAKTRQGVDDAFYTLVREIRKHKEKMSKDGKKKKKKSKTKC
Experiment: HTRF assay, inhibition of Ras-Raf RBD interaction
Type: binding
Settings: relative to parent 9A5/9A6
Square brackets hold non-standard residues; d marks the D form. Peptide text beside a SMILES is read from it. Phe(3,4-F2) = N[C@@H](Cc1ccc(F)c(F)c1)C(=O)O; Phe(4-F) = N[C@@H](Cc1ccc(F)cc1)C(=O)O; d2Nal = N[C@H](Cc1ccc2ccccc2c1)C(=O)O; Tle = CC(C)(C)[C@H](N)C(=O)O; dNle = CCCC[C@@H](N)C(=O)O

{"columns": ["COMPOUND", "OBSERVED"],
 "data": [
  ["C[C@H]1NC(=O)[C@H]([C@@H](C)O)NC(=O)[C@H](Cc2c[nH]c3ccccc23)NC(=O)[C@H](CCC(N)=O)NC(=O)[C@@H](CCCNC(=N)N)NC(=O)[C@H](Cc2ccc(F)cc2)NC(=O)[C@H](CCCNC(=N)N)NC(=O)[C@@H](Cc2ccc3ccccc3c2)NC(=O)[C@H](CCCNC(=N)N)NC(=O)[C@H](CCCNC(=N)N)NC(=O)[C@H](CCCNC(=N)N)NC1=O [Cyclorasin 9A45] (cyclo(WT[dA]RRR[d2Nal]R[Phe(4-F)][dR]Q))", "4 fold"],
  ["CCCC[C@H]1NC(=O)[C@H](Cc2ccc(F)cc2)NC(=O)[C@H](CCCNC(=N)N)NC(=O)[C@@H](Cc2ccc3ccccc3c2)NC(=O)[C@H](CCCNC(=N)N)NC(=O)[C@H](CCCNC(=N)N)NC(=O)[C@@H](CCCNC(=N)N)NC(=O)[C@@H](C)NC(=O)[C@H](C(C)(C)C)NC(=O)[C@H](Cc2c[nH]c3ccccc23)NC(=O)[C@H](CCC(N)=O)NC1=O [Cyclorasin 9A16] (cyclo(W[Tle][dA][dR]RR[d2Nal]R[Phe(4-F)][dNle]Q))", "2 fold"],
  ["CCCC[C@H]1NC(=O)[C@H](Cc2ccc(F)c(F)c2)NC(=O)[C@H](CCCNC(=N)N)NC(=O)[C@@H](Cc2ccc3ccccc3c2)NC(=O)[C@H](CCCNC(=N)N)NC(=O)[C@H](CCCNC(=N)N)NC(=O)[C@H](CCCNC(=N)N)NC(=O)[C@@H](C)NC(=O)[C@H]([C@@H](C)O)NC(=O)[C@H](Cc2c[nH]c3ccccc23)NC(=O)[C@H](CCC(N)=O)NC1=O [Cyclorasin 9A43] (cyclo(WT[dA]RRR[d2Nal]R[Phe(3,4-F2)][dNle]Q))", "2 fold"]
]}

Lookup: Specify measured increase of Ras binding affinity by substitution for CCCC[C@H]1NC(=O)[C@H](Cc2ccc(F)cc2)NC(=O)[C@H](CCCNC(=N)N)NC(=O)[C@@H](Cc2ccc3ccccc3c2)NC(=O)[C@H](CCCNC(=N)N)NC(=O)[C@H](CCCNC(=N)N)NC(=O)[C@@H](CCCNC(=N)N)NC(=O)[C@@H](C(C)C)NC(=O)[C@H]([C@@H](C)O)NC(=O)[C@H](Cc2c[nH]c3ccccc23)NC(=O)[C@H](CCC(N)=O)NC1=O [Cyclorasin 9A14] (cyclo(WT[dV][dR]RR[d2Nal]R[Phe(4-F)][dNle]Q)) .
Found: 2 fold

* * *

Tested on: H1299 lung cancer cells
Type: cell-based
Conditions: 72 h
Square brackets hold non-standard residues; d marks the D form. Peptide text beside a SMILES is read from it. * marks the point of attachment. Lys(5-FITC)NH2 = NC(=O)[C@H](CCCCNC(=S)Nc1ccc2c(c1)C(=O)OC21c2ccc(O)cc2Oc2cc(O)ccc21)N*; His(τ-Bzl) = N[C@@H](Cc1cn(Cc2ccccc2)cn1)C(=O)O; Phe(3,4-F2) = N[C@@H](Cc1ccc(F)c(F)c1)C(=O)O; Phe(4-F) = N[C@@H](Cc1ccc(F)cc1)C(=O)O; 2Nal = N[C@@H](Cc1ccc2ccccc2c1)C(=O)O; d2Nal = N[C@H](Cc1ccc2ccccc2c1)C(=O)O; Tle = CC(C)(C)[C@H](N)C(=O)O; dNle = CCCC[C@@H](N)C(=O)O
EXPERIMENTAL READOUT: IC50

Answered examples (4):
{"columns": ["COMPOUND", "OBSERVED"],
 "data": [
  ["CCCC[C@H]1NC(=O)[C@H](Cc2ccc(F)cc2)NC(=O)[C@H](CCCNC(=N)N)NC(=O)[C@@H](Cc2ccc3ccccc3c2)NC(=O)[C@H](CCCNC(=N)N)NC(=O)[C@H](CCCNC(=N)N)NC(=O)[C@H](CCCNC(=N)N)NC(=O)[C@@H](C)NC(=O)[C@H]([C@@H](C)O)NC(=O)[C@H](Cc2ccc3ccccc3c2)NC(=O)[C@H](CCC(N)=O)NC1=O [Cyclorasin 9A49] (cyclo([2Nal]T[dA]RRR[d2Nal]R[Phe(4-F)][dNle]Q))", "6.3 µM"],
  ["CCCC[C@H]1NC(=O)[C@H](Cc2ccc(F)cc2)NC(=O)[C@H](CCCNC(=N)N)NC(=O)[C@@H](Cc2ccc3ccccc3c2)NC(=O)[C@H](CCCNC(=N)N)NC(=O)[C@H](CCCNC(=N)N)NC(=O)[C@@H](CCCNC(=N)N)NC(=O)[C@@H](C(C)C)NC(=O)[C@H](C(C)(C)C)NC(=O)[C@H](Cc2c[nH]c3ccccc23)NC(=O)[C@H](CCC(N)=O)NC1=O [Cyclorasin 9A53] (cyclo(W[Tle][dV][dR]RR[d2Nal]R[Phe(4-F)][dNle]Q))", "13 µM"],
  ["CCCC[C@H]1NC(=O)[C@H](Cc2ccc(F)cc2)NC(=O)[C@H](CCCNC(=N)N)NC(=O)[C@@H](Cc2ccc3ccccc3c2)NC(=O)[C@H](CCCNC(=N)N)NC(=O)[C@H](CCCNC(=N)N)NC(=O)[C@H](CCC(=O)N[C@@H](CCCCNC(=S)Nc2ccc3c(c2)C(=O)OC32c3ccc(O)cc3Oc3cc(O)ccc32)C(N)=O)NC(=O)[C@@H](C)NC(=O)[C@H]([C@@H](C)O)NC(=O)[C@H](Cc2c[nH]c3ccccc23)NC(=O)[C@@H](CO)NC1=O [Cyclorasin 9A] (cyclo(RR[d2Nal]R[Phe(4-F)][dNle][dS]WT[dA]E(Lys(5-FITC)NH2)))", "18 µM"],
  ["CCCC[C@H]1NC(=O)[C@H](Cc2ccc(F)c(F)c2)NC(=O)[C@H](CCCNC(=N)N)NC(=O)[C@@H](Cc2ccc3ccccc3c2)NC(=O)[C@H](CCCNC(=N)N)NC(=O)[C@H](CCCNC(=N)N)NC(=O)[C@H](CCCNC(=N)N)NC(=O)[C@@H](C)NC(=O)[C@H]([C@@H](C)O)NC(=O)[C@H](Cc2c[nH]c3ccccc23)NC(=O)[C@H](CCC(N)=O)NC1=O [Cyclorasin 9A43] (cyclo(WT[dA]RRR[d2Nal]R[Phe(3,4-F2)][dNle]Q))", "6.9 µM"]
]}

Consider the record given below.
Lookup: Provide only the value of recorded IC50 for CCCC[C@H]1NC(=O)[C@H](Cc2ccc(F)cc2)NC(=O)[C@H](CCCNC(=N)N)NC(=O)[C@@H](Cc2ccc3ccccc3c2)NC(=O)[C@H](CCCNC(=N)N)NC(=O)[C@H](CCCNC(=N)N)NC(=O)[C@H](CCCNC(=N)N)NC(=O)[C@@H](C)NC(=O)[C@H]([C@@H](C)O)NC(=O)[C@H](Cc2cn(Cc3ccccc3)cn2)NC(=O)[C@H](CCC(N)=O)NC1=O [Cyclorasin 9A7] (cyclo([Phe(4-F)][dNle]Q[His(τ-Bzl)]T[dA]RRR[d2Nal]R))
Found: 10 µM

* * *

Molecular target: Ras(G12V)-Raf RBD interaction (Homo sapiens, UniProt P01116, G12V)
Construct: The G12V mutant K-Ras (amino acids 1-185) was recombinantly fused to glutathione 5-transferase (GST) at its N-terminus; GST (N, cleaved yes); made in house; host or cells: Escherichia coli BL21
Assay: HTRF assay, inhibition of Ras-Raf RBD interaction
Format: binding
Details: inhibition of Ras-Raf interaction, unlabeled peptide; read-out: HTRF IC50
pIC50: −log10 of the molar value. Square brackets hold non-standard residues; d marks the D form. Side chains are listed from the residue outwards. Peptide text beside a SMILES is read from it. Phe(3,4-F2) = N[C@@H](Cc1ccc(F)c(F)c1)C(=O)O; Phe(4-F) = N[C@@H](Cc1ccc(F)cc1)C(=O)O; d2Nal = N[C@H](Cc1ccc2ccccc2c1)C(=O)O; Tle = CC(C)(C)[C@H](N)C(=O)O; dNle = CCCC[C@@H](N)C(=O)O; Nle = CCCC[C@H](N)C(=O)O
As shown below, each of these molecules has a reported pIC50 value.

These solved cases illustrate the format of a correct answer.
{"columns": ["MOLECULE", "OBSERVED"],
 "data": [
  ["CC(C)[C@H]1NC(=O)[C@H](C(C)(C)C)NC(=O)[C@H](Cc2c[nH]c3ccccc23)NC(=O)[C@H](CCC(N)=O)NC(=O)[C@@H](CCCNC(=N)N)NC(=O)[C@H](Cc2ccc(F)c(F)c2)NC(=O)[C@H](CCCNC(=N)N)NC(=O)[C@@H](Cc2ccc3ccccc3c2)NC(=O)[C@H](CCCNC(=N)N)NC(=O)[C@H](CCCNC(=N)N)NC(=O)[C@H](CCCNC(=N)N)NC1=O [Cyclorasin 9A50] (cyclo([Phe(3,4-F2)][dR]QW[Tle][dV]RRR[d2Nal]R))", "< 6.00"],
  ["C[C@H]1NC(=O)[C@H]([C@@H](C)O)NC(=O)[C@H](Cc2c[nH]c3ccccc23)NC(=O)[C@H](CCC(N)=O)NC(=O)[C@@H](CCCNC(=N)N)NC(=O)[C@H](Cc2ccc(F)c(F)c2)NC(=O)[C@H](CCCNC(=N)N)NC(=O)[C@@H](Cc2ccc3ccccc3c2)NC(=O)[C@H](CCCNC(=N)N)NC(=O)[C@H](CCCNC(=N)N)NC(=O)[C@H](CCCNC(=N)N)NC1=O [Cyclorasin 9A52] (cyclo([Phe(3,4-F2)][dR]QWT[dA]RRR[d2Nal]R))", "< 6.00"],
  ["CCCC[C@H]1NC(=O)[C@H](Cc2ccc(O)cc2)NC(=O)[C@H](CCCNC(=N)N)NC(=O)[C@@H](Cc2ccc3ccccc3c2)NC(=O)[C@H](CCCNC(=N)N)NC(=O)[C@H](CCCNC(=N)N)NC(=O)[C@@H](CCCNC(=N)N)NC(=O)[C@@H](C)NC(=O)[C@H]([C@@H](C)O)NC(=O)[C@H](Cc2c[nH]c3ccccc23)NC(=O)[C@H](CCC(N)=O)NC1=O [Cyclorasin 9A13] (cyclo(QWT[dA][dR]RR[d2Nal]RY[dNle]))", "< 4.70"]
]}

Lab note: next molecule to report on.
Lookup: Determine reported pIC50 for CCCC[C@H](NC(=O)CC[C@@H]1NC(=O)[C@@H](C)NC(=O)[C@H]([C@@H](C)O)NC(=O)[C@H](Cc2c[nH]c3ccccc23)NC(=O)[C@H](CCC(N)=O)NC(=O)[C@@H](CCCC)NC(=O)[C@H](Cc2ccc(F)cc2)NC(=O)[C@H](CCCNC(=N)N)NC(=O)[C@@H](Cc2ccc3ccccc3c2)NC(=O)[C@H](CCCNC(=N)N)NC(=O)[C@H](CCCNC(=N)N)NC1=O)C(N)=O [Cyclorasin 9A4] (cyclo(RR[d2Nal]R[Phe(4-F)][dNle]QWT[dA]E([Nle-NH2]))) ; test system: Ras(G12V)-Raf RBD interaction (Homo sapiens, UniProt P01116, G12V).
Found: 6.30
